Source listed as ChEMBL document CHEMBL1149614.

Listed next: entries and their corresponding pIC50.
- System: Rotavirus
- assayOverview: Antiviral activity against Rotavirus RF in rhesus monkey MA104 cells assessed as inhibition of infectivity following virus attachment after 72 hrs
- Type: functional, organism-based
- studyConditions: MA104, 72 h
Just so you know, pIC50 here is -log10 of the concentration in molar units; reply with that number alone.

Worked examples follow.
I have this compound here, Cc1cn([C@H]2C[C@H](N=[N+]=[N-])[C@@H](CO)O2)c(=O)[nH]c1=O , and I need its recorded pIC50.
4.65

Data request, read-out pIC50, for C=C1C=C[C@@H](CO)O[C@H]1n1cc(C)c(=O)[nH]c1=O
4.10

# query: pIC50 of entry Cc1cn([C@@H]2O[C@H](CO)[C@H](O)[C@H](O)C2=O)c(=O)[nH]c1=O
5.16

---
Name the reported pIC50 value associated with the compound C=C1[C@@H](O)[C@@H](O)[C@@H](CO)O[C@H]1n1cc(C)c(=O)[nH]c1=O
5.15

# query: pIC50 of entry C=C1C=C[C@@H](COC(c2ccccc2)(c2ccccc2)c2ccccc2)O[C@H]1n1cc(C)c(=O)[nH]c1=O
5.39

---

- assayOverview: Cytotoxicity against rhesus monkey MA104 cells after 72 hrs
- Format: functional
- studyConditions: Macaca mulatta, MA104, 72 h
This listing pairs molecules with measured CC50.
Give the number; µM is assumed, so skip it.

What CC50 value was documented for this molecule, Cc1cn([C@@H]2O[C@H](CO)[C@H](O)[C@H](O)C2=O)c(=O)[nH]c1=O ?
210

Please report the recorded CC50 for C=C1C=C[C@@H](COC(c2ccccc2)(c2ccccc2)c2ccccc2)O[C@H]1n1cc(C)c(=O)[nH]c1=O .
244

---

# Ratio annotations
- assayOverview: Tumor selectivity index, ratio of CC50 for human H4 cells to CC50 for human Caco-2 cells
- Format: functional
The reply should be a number, written without any unit.

Item under review: C=C1C=C[C@@H](CO)O[C@H]1n1cc(C)c(=O)[nH]c1=O . Reported Ratio?
0.0014

Further cases:
// returns reported Ratio for input O=c1[nH]cc(F)c(=O)[nH]1 [FLUOROURACIL]
10

I would be grateful if you could share the reported Ratio for C=C1C=C[C@@H](COC(c2ccccc2)(c2ccccc2)c2ccccc2)O[C@H]1n1cc(C)c(=O)[nH]c1=O .
0.04

Consider the compound Cc1cn([C@@H]2O[C@H](CO)[C@H](O)[C@H](O)C2=O)c(=O)[nH]c1=O and give its measured Ratio.
25

Record request: Ratio value, item C=C1[C@@H](O)[C@@H](O)[C@@H](CO)O[C@H]1n1cc(C)c(=O)[nH]c1=O
24.9

---

Readings of IC50 for the listed compounds
- Test system: Caco-2
- assayOverview: Growth inhibition of human Caco-2 cells after 10 days
- Assay type: functional, cell-based
- studyConditions: Caco-2, 240 h
Please reply with the bare figure in µM and do not write the unit itself.

Below are worked cases with known answers.
Query for Caco-2: what IC50 does the record show for Cc1cn([C@@H]2O[C@H](CO)[C@H](O)[C@H](O)C2=O)c(=O)[nH]c1=O ?
0.7

Find the measured IC50: item C=C1C=C[C@@H](COC(c2ccccc2)(c2ccccc2)c2ccccc2)O[C@H]1n1cc(C)c(=O)[nH]c1=O , target or system Caco-2.
0.4

Please tell me: IC50 of C=C1[C@@H](O)[C@@H](O)[C@@H](CO)O[C@H]1n1cc(C)c(=O)[nH]c1=O , system Caco-2?
21.1

Here is the next item to consider.
I'm curious: which IC50 was measured for C=C1C=C[C@@H](CO)O[C@H]1n1cc(C)c(=O)[nH]c1=O tested on Caco-2?
79.9

---

Below is a list of entries, each paired with its recorded CC50 value.
- Tested on: H4
- assayOverview: Cytotoxicity against human H4 cells after 72 hrs
- Assay type: functional
- studyConditions: H4, 72 h
Write it as a number; the unit µM goes unstated.

The cases that follow already have their CC50 on record.
# returns recorded CC50 (system: H4) for O=c1[nH]cc(F)c(=O)[nH]1 [FLUOROURACIL]
3840

What value of CC50 on H4 does C=C1C=C[C@@H](COC(c2ccccc2)(c2ccccc2)c2ccccc2)O[C@H]1n1cc(C)c(=O)[nH]c1=O have?
40.6

Record Cc1cn([C@@H]2O[C@H](CO)[C@H](O)[C@H](O)C2=O)c(=O)[nH]c1=O : what is its CC50 with H4?
1750

Short answer please: CC50, H4, entry C=C1[C@@H](O)[C@@H](O)[C@@H](CO)O[C@H]1n1cc(C)c(=O)[nH]c1=O
1760

Field: next compound
Write down the reported CC50 of C=C1C=C[C@@H](CO)O[C@H]1n1cc(C)c(=O)[nH]c1=O , test system: H4.
2.8

---

- assayOverview: Cytotoxicity against rhesus monkey MA104 cells after 72 hrs
- Type: functional
- studyConditions: Macaca mulatta, MA104, 72 h
Readings of CC50 for the listed compounds
Value expressed in µM; do not type the unit.

I'd like to know its CC50. The compound in question is O=c1[nH]cc(F)c(=O)[nH]1
231

Field request: CC50 | item: C=C1C=C[C@@H](CO)O[C@H]1n1cc(C)c(=O)[nH]c1=O
480

Here is the next item to consider.
If you can, please state the reported CC50 value of C=C1[C@@H](O)[C@@H](O)[C@@H](CO)O[C@H]1n1cc(C)c(=O)[nH]c1=O .
211
